- tested.target: Histone-lysine N-methyltransferase EHMT2 (Homo sapiens) (UniProt Q96KQ7)
- Sequence (Q96KQ7 913-1193 limits assumed): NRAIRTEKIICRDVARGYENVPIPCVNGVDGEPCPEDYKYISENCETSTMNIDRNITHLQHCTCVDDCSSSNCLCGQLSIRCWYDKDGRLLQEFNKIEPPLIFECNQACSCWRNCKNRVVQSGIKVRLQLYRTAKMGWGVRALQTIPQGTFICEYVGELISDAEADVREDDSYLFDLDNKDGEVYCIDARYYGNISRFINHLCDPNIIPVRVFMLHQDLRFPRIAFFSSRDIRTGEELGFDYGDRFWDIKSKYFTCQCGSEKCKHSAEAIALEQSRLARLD
- assay.summary: qHTS Assay for Inhibitors of Histone Lysine Methyltransferase G9a; also: nearly all actives have a fitted effect of over 75% in size
- condition.description: G9a H3K9 monomethylation, AlphaScreen, 2 h; series mostly up to 59 µM
The campaign covered roughly 350,000 compounds. About 31,000 (8.9%) were called active. Another 15% or so got no clear call; they are omitted. Calls follow the shape of the dose curve; as a rule, active = well fitted inhibition curve with a large enough effect; inconclusive = small, poorly fitted or top-dose-only effect; inactive = no such curve, though single readings can be large or run the other way. Only a selection was taken, and actives are over-represented in it overall.
Assign a class; possible classes are class 1 for active, class 0 for inactive

CCOc1ccc(CN2CCN(Cc3ccc4cc(F)ccc4n3)CC2CCO)cc1 (configuration not stated) | class 0
Cc1ccc(OCCCC(=O)NC(C)c2ccccc2)c(C)c1 (configuration not stated) | class 0
CC(C)NC(=O)C1CCC(Cn2c(=O)c3sccc3n(Cc3ccc(F)cc3)c2=O)CC1 (configuration not stated) | class 0

Q: Which result was noted for this molecule in the test: COc1ccc(Cn2ccn(CC(=O)Nc3cc(C)ccc3C)c(=O)c2=O)cc1
Ans: class 0

Q: # fetch the recorded call for O=C(NC(Cc1ccccc1)C(=O)N1CCCC(C(F)(F)F)C1)c1ccccc1 (configuration not stated) here
Ans: class 0

Q: Could you kindly confirm the outcome this assay logged for CCOC(=O)N1CCN(C(=O)Cc2ccc(-n3c(=S)[nH]c4ccccc4c3=O)cc2)CC1 ?
Ans: class 1
